- target: T1, human VEGF (hVEGF) (human, UniProt P15692 181-395)
- T1 construct: also called VEGF-A
- T1 sequence: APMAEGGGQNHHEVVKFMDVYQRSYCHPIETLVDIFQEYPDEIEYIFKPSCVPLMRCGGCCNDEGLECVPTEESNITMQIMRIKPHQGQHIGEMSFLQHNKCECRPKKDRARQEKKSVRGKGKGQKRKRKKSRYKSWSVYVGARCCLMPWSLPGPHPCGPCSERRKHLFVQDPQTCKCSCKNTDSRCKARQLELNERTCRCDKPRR
- experiment: SPR single-cycle;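 also: fab variants injected over hVEGF immobilized on a CM5 chip (Biacore T200), threefold dilution series from 0.02 to 50 nM, kinetics fitted with a 1:1 Langmuir model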
Listed here are binders together with their documented koff.
measurementLabel: koff (s⁻¹)

1. G6.31 HC-G65E (Fab, name in Kabat numbering, V domains shown, Fab) VH: EVQLVESGGGLVQPGGSLRLSCAASGFTISDYWIHWVRQAPGKGLEWVAGITPAGGYTYYADSVKERFTISADTSKNTAYLQMNSLRAEDTAVYYCARFVFFLPYAMDYWGQGTLVTVSS VL: DIQMTQSPSSLSASVGDRVTITCRASQDVSTAVAWYQQKPGKAPKLLIYSASFLYSGVPSRFSGSGSGTDFTLTISSLQPEDFATYYCQQGYGNPFTFGQGTKVEIK	0.000472
2. G6.31 HC-T68E (Fab, name in Kabat numbering, V domains shown, Fab) VH: EVQLVESGGGLVQPGGSLRLSCAASGFTISDYWIHWVRQAPGKGLEWVAGITPAGGYTYYADSVKGRFEISADTSKNTAYLQMNSLRAEDTAVYYCARFVFFLPYAMDYWGQGTLVTVSS VL: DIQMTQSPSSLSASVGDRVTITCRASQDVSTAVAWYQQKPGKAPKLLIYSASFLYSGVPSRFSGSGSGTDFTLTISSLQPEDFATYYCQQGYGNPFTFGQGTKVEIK	0.00044
3. G6.31 LC-P40E (Fab, V domains shown, Fab) VH: EVQLVESGGGLVQPGGSLRLSCAASGFTISDYWIHWVRQAPGKGLEWVAGITPAGGYTYYADSVKGRFTISADTSKNTAYLQMNSLRAEDTAVYYCARFVFFLPYAMDYWGQGTLVTVSS VL: DIQMTQSPSSLSASVGDRVTITCRASQDVSTAVAWYQQKEGKAPKLLIYSASFLYSGVPSRFSGSGSGTDFTLTISSLQPEDFATYYCQQGYGNPFTFGQGTKVEIK	0.000541
